- TEST DETAILS: blockers of CRF-binding protein–CRF-R2 complex – cell-based, uHTS hits, 384-well, dose response (AID 651639)
- Format: functional, Homo sapiens
- RUN PARAMETERS: read-out: IC50_Mean
The source made the active and inactive calls. Cut-off read from the data, not from the text of the source: actives have a measured value and inactives only a lower limit.
Valid outcomes are listed here; reply with one: 1 (active), 0 (inactive)

Past entries and their recorded results:
CCC(c1nnnn1C1CCCC1)N1CCN(Cc2ccccc2)CC1 (centres undefined) ... 0
N#Cc1cccc(C(c2nnnn2C2CCCC2)N2CCCCCC2)c1 (centres undefined) ... 0

Ask: Any idea what this test logged for `Cc1nc(Sc2ccccc2)c(C#N)cc1-c1ccccc1` ?
Result: 0

Ask: Could you please tell me the result logged for `COC(=O)c1cc(OC)c(OC)cc1NC(=O)c1c(-c2ccccc2)noc1C` in this assay?
Result: 1
